# ASSAY_NOTES: self-splicing fitness, log relative to wild type (ln ratio); higher = more splicing; Tetrahymena group I intron in knt gene, E. coli kanamycin selection, DiMSum; sequences stand for … in CUCUCU…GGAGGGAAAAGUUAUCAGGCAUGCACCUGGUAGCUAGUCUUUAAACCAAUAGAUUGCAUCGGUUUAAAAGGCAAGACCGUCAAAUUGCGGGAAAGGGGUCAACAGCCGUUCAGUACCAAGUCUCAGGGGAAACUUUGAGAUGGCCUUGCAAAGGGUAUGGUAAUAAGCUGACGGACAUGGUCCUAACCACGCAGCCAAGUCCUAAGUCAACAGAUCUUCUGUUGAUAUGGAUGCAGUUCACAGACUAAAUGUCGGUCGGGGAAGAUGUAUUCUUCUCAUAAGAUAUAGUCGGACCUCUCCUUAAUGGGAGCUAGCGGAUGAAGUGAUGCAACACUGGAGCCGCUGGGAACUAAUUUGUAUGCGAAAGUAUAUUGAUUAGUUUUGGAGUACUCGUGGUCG;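 note: selection with 25 µg/mL kanamycin versus none on LB agar overnight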
# MEASUREMENT_PARAMETERS: 37 °C
PROPERTY_NAME: self-splicing fitness (ln)
Just the number, please, no unit attached.

In [3]: df
Out[3]:
          sequence_data  quantitative_readout
0  ACGAAGCAAUAUUACGAGGC                 -1.81
1  GCUAAGCAAUAUUACGCCGU                -0.927
2  GAAGAGCAAUAUUACGUGUU                 -2.12
3  GUGUAGCAAUAUUACGUCGA                -0.586

Challenge: Read off the recorded self-splicing fitness (ln) for UGGAAGCAAUAUUACGUGCG
Response given: 0.0701

Challenge: Entry GAUUAGCAAUAUUACGUAAG needs its self-splicing fitness (ln) filled in; supply it.
Response given: -0.715

###

# ASSAY_NOTES: self-splicing fitness, log relative to wild type (ln ratio); higher = more splicing; Tetrahymena group I intron in knt gene, E. coli kanamycin selection, DiMSum; sequences stand for … in CUCUCU…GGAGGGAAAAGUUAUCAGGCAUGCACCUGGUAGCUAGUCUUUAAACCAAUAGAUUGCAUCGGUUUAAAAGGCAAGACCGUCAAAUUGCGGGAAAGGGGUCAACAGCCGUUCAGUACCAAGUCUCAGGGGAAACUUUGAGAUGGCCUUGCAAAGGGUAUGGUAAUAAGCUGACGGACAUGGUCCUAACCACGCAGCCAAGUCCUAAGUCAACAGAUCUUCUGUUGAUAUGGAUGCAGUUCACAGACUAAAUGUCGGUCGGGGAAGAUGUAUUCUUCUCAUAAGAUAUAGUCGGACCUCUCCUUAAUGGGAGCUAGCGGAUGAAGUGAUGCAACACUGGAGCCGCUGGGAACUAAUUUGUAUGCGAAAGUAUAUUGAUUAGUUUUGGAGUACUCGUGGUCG
# MEASUREMENT_PARAMETERS: 30 °C
PROPERTY_NAME: self-splicing fitness (ln)
Please state the value as a number alone, without comment.

>>> df
          sequence_data               property_name  quantitative_readout
0  CCUCAGCAAUAUUACGGCCA  self-splicing fitness (ln)                 -2.68
1  UCCGAGCAAUAUUACGACUU  self-splicing fitness (ln)                 -2.69
2  UCCGAGCAAUAUUACGCCAC  self-splicing fitness (ln)                 -2.05

Challenge: For the sequence GGCGAGCAAUAUUACGAUAU , give its measured self-splicing fitness (ln) value.
Response given: -2.12

Challenge: Report self-splicing fitness (ln), nothing else, for this sequence: CGUCAGCAAUAUUACGUAUU
Response given: -2.83

Challenge: Respond only with self-splicing fitness (ln) recorded for GAUCAGCAAUAUUACGUCUA
Response given: -0.327

Challenge: Input AUCUAGCAAUAUUACGGUGC , output reported self-splicing fitness (ln).
Response given: -3.09

Challenge: Using the record for CUCCAGCAAUAUUACGCUAG , state its measured self-splicing fitness (ln).
Response given: -3.91
